Values from patent US20250346613A1

- target-entity: β5i subunit of the 20S proteasome (Homo sapiens, UniProt P20618+P28062)
- Construct: The proteasome tested in the present disclosure was derived from Raji cells; endogenous in cells; host or cells: Raji cells
- experiment-summary: Proteasome inhibitory activity, β5i subunit (Raji cells treated with compound, lysed, Ac-ANW-AMC substrate)
- Format: cell-based
- condition-summary: proteasome from Raji cells incubated with compound 4 h
Item-by-item account of IC50

COc1cccc(CNC(=O)CC(=O)N[C@@H](Cc2ccccc2)B(O)O)c1 :: ≤ 50 nM
COc1cccc(CNC(=O)C(CC2CC2)C(=O)N[C@@H](Cc2coc3ccccc23)B(O)O)c1 (stereo partly drawn) :: ≤ 50 nM

Next:
input: Fill blank: measured IC50 of the compound CC(C(=O)NCc1cccc(-c2ccccc2)n1)C(=O)N[C@@H](Cc1coc2ccccc12)B(O)O (stereo partly drawn) is ____.
output: ≤ 50 nM
